- Test details: Half-life in Sprague-Dawley rat at 1 mg/kg, iv by LC-MS analysis
- Type: ADME, organism-based
- Assay context: in vivo
Parameter: half-life (h)

| Smiles repr | Experimental value |
| --- | --- |
| Cc1nc(NC(=O)c2sc3cc(F)ccc3c2Cl)c(C)c(C)c1O | 2 |

###

- Test details: Cmax in Sprague-Dawley rat at 5 mg/kg, po by LC-MS analysis
- Type: ADME, organism-based
- Assay context: in vivo

| Smiles repr | Cmax |
| --- | --- |
| Cc1nc(NC(=O)c2sc3cc(F)ccc3c2Cl)c(C)c(C)c1O | 760 ng/mL |
